system: T1, Her2 ECD (amino acids 1 to 629 of matured HER2 with C-terminal avi-tag and His-tag) (human, UniProt P04626 23-652)
T1 construct: also called purified Her2
test method notes: SPR, Ab captured, Her2 analyte;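 note: ProteOn XPR36 SPR, rate constants from simultaneous fit of association and dissociation sensorgrams to a 1:1 Langmuir model, buffer-channel referenced, KD taken as koff/kon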
assay metric: kon (M⁻¹ s⁻¹)
Kindly provide the numeric value in M⁻¹ s⁻¹ only, without the unit symbol.

Pertuzumab HC x Pertuzumab (Tras.L3) G66R LC (antibody, V domains shown) VH: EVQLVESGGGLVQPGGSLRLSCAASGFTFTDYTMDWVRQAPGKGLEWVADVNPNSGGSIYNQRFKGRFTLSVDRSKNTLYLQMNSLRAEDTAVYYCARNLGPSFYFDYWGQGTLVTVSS VL: DIQMTQSPSSLSASVGDRVTITCKASQDVSIGVAWYQQKPGKAPKLLIYSASYRYTGVPSRFSGSRSGTDFTLTISSLQPEDFATYYCQQHYTTPPTFGQGTKVEIK; 358000
Pertuzumab HC x Pertuzumab (Tras.L3) K24R LC (antibody, V domains shown) VH: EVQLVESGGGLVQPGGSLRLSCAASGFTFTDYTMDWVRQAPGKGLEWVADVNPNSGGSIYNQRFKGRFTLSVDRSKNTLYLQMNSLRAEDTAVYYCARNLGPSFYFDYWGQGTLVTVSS VL: DIQMTQSPSSLSASVGDRVTITCRASQDVSIGVAWYQQKPGKAPKLLIYSASYRYTGVPSRFSGSGSGTDFTLTISSLQPEDFATYYCQQHYTTPPTFGQGTKVEIK; 457000
Pertuzumab HC x Pertuzumab (Tras.L3) P96Y LC (antibody, V domains shown) VH: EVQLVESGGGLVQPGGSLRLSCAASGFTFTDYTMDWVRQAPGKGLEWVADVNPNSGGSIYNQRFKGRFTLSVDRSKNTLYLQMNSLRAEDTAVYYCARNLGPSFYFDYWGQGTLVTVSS VL: DIQMTQSPSSLSASVGDRVTITCKASQDVSIGVAWYQQKPGKAPKLLIYSASYRYTGVPSRFSGSGSGTDFTLTISSLQPEDFATYYCQQHYTTPYTFGQGTKVEIK; 344000
Pertuzumab HC x Pertuzumab (Tras.L3) Y53F LC (antibody, V domains shown) VH: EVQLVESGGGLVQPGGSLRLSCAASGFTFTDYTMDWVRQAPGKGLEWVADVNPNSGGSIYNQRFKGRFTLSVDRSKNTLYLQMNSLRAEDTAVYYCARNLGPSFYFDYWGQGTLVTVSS VL: DIQMTQSPSSLSASVGDRVTITCKASQDVSIGVAWYQQKPGKAPKLLIYSASFRYTGVPSRFSGSGSGTDFTLTISSLQPEDFATYYCQQHYTTPPTFGQGTKVEIK; 316000

Now for a further binder.
Query: For the binder Pertuzumab HC x Pertuzumab (Tras.L3) LC (antibody, V domains shown, human IgG) VH: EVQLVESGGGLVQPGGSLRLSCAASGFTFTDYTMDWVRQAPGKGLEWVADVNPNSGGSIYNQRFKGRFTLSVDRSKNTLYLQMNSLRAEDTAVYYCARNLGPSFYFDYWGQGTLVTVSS VL: DIQMTQSPSSLSASVGDRVTITCKASQDVSIGVAWYQQKPGKAPKLLIYSASYRYTGVPSRFSGSGSGTDFTLTISSLQPEDFATYYCQQHYTTPPTFGQGTKVEIK , what kon is on record?
Reply: 422000
